# experimental_target: human RIPK1 (Homo sapiens, UniProt Q13546)
# Sequence (Q13546 1-671): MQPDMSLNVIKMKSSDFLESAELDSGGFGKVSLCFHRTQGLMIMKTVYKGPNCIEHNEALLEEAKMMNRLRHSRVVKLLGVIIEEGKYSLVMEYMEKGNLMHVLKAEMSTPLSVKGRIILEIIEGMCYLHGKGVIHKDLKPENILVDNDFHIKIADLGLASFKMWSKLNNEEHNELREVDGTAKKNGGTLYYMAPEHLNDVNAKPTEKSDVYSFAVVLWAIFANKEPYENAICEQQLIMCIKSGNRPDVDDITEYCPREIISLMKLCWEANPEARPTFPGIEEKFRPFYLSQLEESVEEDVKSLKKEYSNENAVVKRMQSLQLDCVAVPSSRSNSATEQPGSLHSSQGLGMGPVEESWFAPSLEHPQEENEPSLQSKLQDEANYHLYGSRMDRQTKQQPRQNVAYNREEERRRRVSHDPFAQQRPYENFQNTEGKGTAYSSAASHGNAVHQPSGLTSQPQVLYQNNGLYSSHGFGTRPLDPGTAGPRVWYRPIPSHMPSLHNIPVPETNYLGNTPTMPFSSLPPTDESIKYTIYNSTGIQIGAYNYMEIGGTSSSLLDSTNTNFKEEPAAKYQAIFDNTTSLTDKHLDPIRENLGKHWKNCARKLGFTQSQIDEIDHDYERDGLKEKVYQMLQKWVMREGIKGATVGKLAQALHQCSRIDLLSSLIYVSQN
# assay_procedure: In vitro kinase activity assay (ADP-Glo)
# experimental_setup: recombinant RIPK1; ATP 50 μM
quantity_measured: IC50 (µM)
The reply should contain only the number, in µM.

Query: Record lookup: for human RIPK1 (Homo sapiens, UniProt Q13546), what IC50 belongs to CC(=O)Nc1nc2ccc(-c3cnc(Cl)c(NC(=O)Cc4ccccc4)c3)cc2s1 ?
Reply: 0.2

----------
# assay_procedure: Pharmacokinetic profile in mice
# Assay type: in vivo
# experimental_setup: ICR, plasma; mouse, PO (Gavage), 10 mg/kg
quantity_measured: Tmax (min)
The reply should contain only the number, in min.

Query: Can you look up the measured Tmax of CC(=O)Nc1nc2ccc(-c3cnc(C)c(NC(=O)OC4CCCCC4)c3)cc2s1 [PK68] for me?
Reply: 30

----------
# Tested on: mouse embryonic fibroblasts (MEFs)
# assay_procedure: TNF-induced necroptosis (T/S/Z), cell viability by ATP levels
# Assay type: cell-based
# experimental_setup: Fibroblast, 24 h, MEF, T/S/Z 24 h
pEC50: −log10 of the molar value.
quantity_measured: pEC50

Query: What value of pEC50 has been recorded for this entry: CC(=O)Nc1nc2ccc(-c3cnc(Cl)c(NC(=O)Cc4ccccc4)c3)cc2s1
Reply: ~6.02

----------
# assay_procedure: Pharmacokinetic profile in mice
# Format: in vivo
# experimental_setup: ICR, mouse, plasma, iv, 2 mg/kg, IV (Bolus), read-out: Vss
quantity_measured: Vd (L/kg)
API: value field is a number in L/kg; no unit string.

Query: What value of Vd has been recorded for this entry: CC(=O)Nc1nc2ccc(-c3cnc(C)c(NC(=O)OC4CCCCC4)c3)cc2s1
Reply: 1

----------
# experimental_target: TRKA (Homo sapiens)
# Sequence (P04629 33-796): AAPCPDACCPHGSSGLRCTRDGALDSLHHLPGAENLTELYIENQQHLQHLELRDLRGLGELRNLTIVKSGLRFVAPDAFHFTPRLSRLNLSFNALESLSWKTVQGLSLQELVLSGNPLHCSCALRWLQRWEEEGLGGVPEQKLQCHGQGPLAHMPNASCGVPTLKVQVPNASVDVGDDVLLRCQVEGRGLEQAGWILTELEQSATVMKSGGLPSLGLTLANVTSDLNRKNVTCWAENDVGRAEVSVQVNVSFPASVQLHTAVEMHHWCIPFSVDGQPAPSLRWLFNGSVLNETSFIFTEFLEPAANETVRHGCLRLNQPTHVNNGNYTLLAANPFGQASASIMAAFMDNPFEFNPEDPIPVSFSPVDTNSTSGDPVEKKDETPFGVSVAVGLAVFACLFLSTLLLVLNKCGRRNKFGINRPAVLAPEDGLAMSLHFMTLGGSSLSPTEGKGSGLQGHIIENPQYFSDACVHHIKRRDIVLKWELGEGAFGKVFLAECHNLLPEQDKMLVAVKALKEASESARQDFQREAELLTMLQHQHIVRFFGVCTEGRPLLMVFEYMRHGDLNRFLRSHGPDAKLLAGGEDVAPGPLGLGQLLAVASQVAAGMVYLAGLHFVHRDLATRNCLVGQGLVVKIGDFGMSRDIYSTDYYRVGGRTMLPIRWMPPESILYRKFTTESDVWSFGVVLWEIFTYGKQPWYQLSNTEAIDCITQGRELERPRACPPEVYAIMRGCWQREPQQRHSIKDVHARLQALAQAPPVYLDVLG
pIC50: −log10 of the molar value.
quantity_measured: pIC50

Query: Value wanted: pIC50 (TRKA (Homo sapiens)) of entry CC(=O)Nc1nc2ccc(-c3cnc(C)c(NC(=O)OC4CCCCC4)c3)cc2s1
Reply: ~5.00

----------
# assay_procedure: Pharmacokinetic profile in mice
# Format: in vivo
# experimental_setup: ICR, plasma, 2 mg/kg; mouse, IV (Bolus)
quantity_measured: AUC(0-inf) (ng·h/mL)
Dear colleague, please return just the value in ng·h/mL, with no unit written.

Query: Which AUC(0-inf) value is on record for CC(=O)Nc1nc2ccc(-c3cnc(C)c(NC(=O)OC4CCCCC4)c3)cc2s1 [PK68] ?
Reply: 1590

----------
# assay_procedure: Pharmacokinetic profile in mice
# Type: in vivo
# experimental_setup: ICR, plasma, 10 mg/kg; mouse, PO (Gavage)
quantity_measured: AUC(0-inf) (ng·h/mL)
Output spec: scalar in ng·h/mL, unitless text.

Query: Given the molecule CC(=O)Nc1nc2ccc(-c3cnc(C)c(NC(=O)OC4CCCCC4)c3)cc2s1 , what is its reported AUC(0-inf)?
Reply: 4900

----------
# assay_procedure: Pharmacokinetic profile in mice
# Format: in vivo
# experimental_setup: ICR, plasma; mouse, PO (Gavage), 10 mg/kg; read-out: Cmax
quantity_measured: Cmax (ng/mL)
Report the figure in ng/mL without appending any unit label.

Query: Quick one: Cmax for CC(=O)Nc1nc2ccc(-c3cnc(C)c(NC(=O)OC4CCCCC4)c3)cc2s1 ?
Reply: 2420

----------
# assay_procedure: Pharmacokinetic profile in mice
# Type: in vivo
# experimental_setup: ICR, plasma, 10 mg/kg; mouse, PO (Gavage)
quantity_measured: half-life

Query: Value lookup for half-life; key = CC(=O)Nc1nc2ccc(-c3cnc(C)c(NC(=O)OC4CCCCC4)c3)cc2s1
Reply: 1.3 h

----------
# assay_procedure: Pharmacokinetic profile in mice
# Assay type: in vivo
# experimental_setup: ICR, plasma, 10 mg/kg; mouse, PO (Gavage); read-out: AUC0-24
quantity_measured: AUC(0-t) (ng·h/mL)
Kindly provide the numeric value in ng·h/mL only, without the unit symbol.

Query: // query AUC(0-t) value for entry CC(=O)Nc1nc2ccc(-c3cnc(C)c(NC(=O)OC4CCCCC4)c3)cc2s1
Reply: 4820

----------
# assay_procedure: Pharmacokinetic profile in mice
# Type: in vivo
# experimental_setup: ICR, plasma, po; mouse, orally 10 mg/kg; read-out: plasma concentration translated from Cmax
quantity_measured: Cmax

Query: Could you share which Cmax value was measured for CC(=O)Nc1nc2ccc(-c3cnc(C)c(NC(=O)OC4CCCCC4)c3)cc2s1 ?
Reply: ~4 µM

----------
# assay_procedure: Pharmacokinetic profile in mice
# Assay type: in vivo
# experimental_setup: ICR, plasma, 10 mg/kg; mouse, PO (Gavage); read-out: F(%) oral bioavailability
quantity_measured: bioavailability
Just the number plus its unit, please.

Query: Give its bioavailability value. Item: CC(=O)Nc1nc2ccc(-c3cnc(C)c(NC(=O)OC4CCCCC4)c3)cc2s1 [PK68]
Reply: 61%

----------
# assay_procedure: Pharmacokinetic profile in mice
# Assay type: in vivo
# experimental_setup: ICR, mouse, plasma, iv, 2 mg/kg, IV (Bolus)
quantity_measured: clearance (mL/min/kg)
API: value field is a number in mL/min/kg; no unit string.

Query: Sample CC(=O)Nc1nc2ccc(-c3cnc(C)c(NC(=O)OC4CCCCC4)c3)cc2s1 — what was its clearance?
Reply: 21

----------
# assay_procedure: Pharmacokinetic profile in mice
# Assay type: in vivo
# experimental_setup: ICR, plasma, 2 mg/kg; mouse, IV (Bolus); read-out: AUC0-24
quantity_measured: AUC(0-t) (ng·h/mL)
Return type: number; implicit unit ng·h/mL.

Query: What does the record list as AUC(0-t) for CC(=O)Nc1nc2ccc(-c3cnc(C)c(NC(=O)OC4CCCCC4)c3)cc2s1 [PK68] ?
Reply: 1590

----------
# assay_procedure: Pharmacokinetic profile in mice
# Type: in vivo
# experimental_setup: ICR, plasma, 2 mg/kg; mouse, IV (Bolus)
quantity_measured: half-life

Query: Consider the compound shown here: CC(=O)Nc1nc2ccc(-c3cnc(C)c(NC(=O)OC4CCCCC4)c3)cc2s1 What is its recorded half-life?
Reply: 60 min

----------
Below, each entry is listed alongside its reported melting point.

// solved cases for melting point follow
molecule_smiles	melting point
CC(=O)Nc1nc2ccc(-c3cc(NC(=O)OC4CCCCC4)c(C)cn3)cc2s1	227 to 228 °C
CC(=O)Nc1nc2ccc(-c3cnc(C)c(NC(=O)OC4CCCCC4)c3)nc2s1	230 to 231 °C (dec.)
CC(=O)Nc1nc2ccc(-c3cnc(C)c(NC(=O)OC4CCCC4)c3)cc2s1	246 to 247 °C (dec.)

Query: What does the record list as melting point for CC(=O)Nc1cn2cc(-c3cnc(C)c(NC(=O)OC4CCCCC4)c3)ccc2n1 ?
Reply: 268 to 269 °C (dec.)

----------
# assay_procedure: Solubility in FaSSIF, LC/MS/MS
# Format: physicochemical
# experimental_setup: pH= 6.5 FaSSIF, LC/MS/MS, duplicates
# Experimental: ^a Calculated by ACDlabs. ^b Data are measured duplicates in pH= 6.5 FaSSIF using LC/MS/MS. ^c Data are determined three times by SMP10 melting point apparatus.
quantity_measured: solubility (µg/mL)
Express your answer in µg/mL, writing the number without its unit.

compound	quantity_measured	scale_unit	reported
CC(=O)Nc1nc2ccc(-c3cnc(Cl)c(NC(=O)Cc4ccccc4)c3)cc2s1 [PK6]	solubility	µg/mL	0.09

Let us examine a further case.
Query: Any idea what solubility was measured for CC(=O)Nc1nc2ccc(-c3cnc(C)c(NC(=O)OC4CCCCC4)c3)cc2s1 [PK68] ?
Reply: 0.56

src = paper PMC6591251
